System: MRSA 43300
measurement protocol: Antibacterial activity, NCCLS dilution method (Table 9)
Format: cell-based, S. aureus
test settings: Staphylococcus aureus, MRSA, MRSA 43300; dilution method; labels marked a tested as a mixture of diastereomers; read-out: MRSA 43300 MIC
result type: MIC

Some solved entries appear below for comparison.
CO[C@@H]1[C@@H](O)[C@@H](OC)C(NC2=CC(=O)c3c(cc4c(c3O)C(=O)[C@]3(OC)[C@H](O)Cc5cc(C)c(C(=O)NCc6ccccc6)c(O)c5[C@]3(O)C4=O)C2=O)O[C@H]1C (mixture of isomers) [Example 30] :: 0.12 to 0.5 µg/mL
COC(=O)c1c(C)cc2c(c1O)[C@]1(O)C(=O)c3cc4c(c(O)c3C(=O)[C@]1(OC)[C@H](O)C2)C(=O)C=C(N[C@H]1O[C@@H](C)[C@H](OC)[C@@H](O)[C@H]1OC)C4(O)c1ccc(F)cc1 (single isomer, unassigned) [Example 58] :: 8 to 16 µg/mL

Let us move to another entry and its MIC.
Reported MIC for MRSA 43300, given COC(=O)c1c(C)cc2c(c1O)[C@]1(O)C(=O)c3cc4c5c(nc(=O)oc5c3C(=O)[C@]1(OC)[C@H](O)C2)C=C(N[C@H]1O[C@@H](C)[C@H](OC)[C@@H](O)[C@H]1OC)C4=O [Example 60] ? 0.12 to 0.5 µg/mL
